Listing of recorded combination Emax by entry.
- System: RKN (Other Solid Carcinomas)
- assay-overview: combination Emax (second highest fraction inhibited in the dose matrix, 72 h); higher = more inhibition; extreme values may be limits of the assay
property-label: combination Emax

- CC(=O)c1c(C)c2cnc(Nc3ccc(N4CCNCC4)cn3)nc2n(C2CCCC2)c1=O [Palbociclib] + Cc1c2c(nn1C)CSCc1cc(n(C)n1)CSc1cc(c3ccccc3c1)OCCCc1c(C(=O)O)n(C)c3c-2c(Cl)ccc13 [AZD5991] (first compound max 10 µM, 7x7, partner max 1 µM): 0.151
- CC1(C)CCC(CN2CCN(c3ccc(C(=O)NS(=O)(=O)c4ccc(NCC5CCOCC5)c([N+](=O)[O-])c4)c(Oc4cnc5[nH]ccc5c4)c3)CC2)=C(c2ccc(Cl)cc2)C1 [Venetoclax] + COc1cc(Nc2ncc3c(n2)-c2ccc(Cl)cc2C(c2c(F)cccc2OC)=NC3)ccc1C(=O)O [Alisertib] (first compound max 1 µM, 7x7, partner max 10 µM): 0.203
- Cc1cc2ncnn2cc1Nc1ncc2c(n1)n(C1CCOCC1)c(=O)n2C [AZD7648] + CCN(CCO)CCCOc1ccc2c(Nc3cc(CC(=O)Nc4cccc(F)c4)[nH]n3)ncnc2c1 [AZD2811] (first compound max 10 µM, 7x7, partner max 1 µM): 0.211

---

- Tested on: OAW-42 (Ovarian Carcinoma);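 further: after 72 h of two-drug dosing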
- assay-overview: Bliss excess, mean over the matrix (fraction); higher = more synergy
property-label: Bliss excess

- Cc1c2c(nn1C)CSCc1cc(n(C)n1)CSc1cc(c3ccccc3c1)OCCCc1c(C(=O)O)n(C)c3c-2c(Cl)ccc13 [AZD5991] + Cn1cnc2c(F)c(Nc3ccc(Br)cc3Cl)c(C(=O)NOCCO)cc21 [Selumetinib] (first compound max 1 µM, 7x7, partner max 3 µM): 0.0218
- COc1nnc2ccc(N3CCC(c4ccc(OCCN5CCN(C)C(=O)[C@H]5C)cc4)CC3)nn12 [AZD5153] + C=CCn1c(=O)c2cnc(Nc3ccc(N4CCN(C)CC4)cc3)nc2n1-c1cccc(C(C)(C)O)n1 [AZD1775] (first compound max 1 µM, partner max 1 µM): -0.0338
- CC1(C)CCC(CN2CCN(c3ccc(C(=O)NS(=O)(=O)c4ccc(NCC5CCOCC5)c([N+](=O)[O-])c4)c(Oc4cnc5[nH]ccc5c4)c3)CC2)=C(c2ccc(Cl)cc2)C1 [Venetoclax] + Cn1cnc2c(F)c(Nc3ccc(Br)cc3Cl)c(C(=O)NOCCO)cc21 [Selumetinib] (first compound max 1 µM, 7x7, partner max 3 µM): -0.0283
- COc1cc2ncnc(Nc3ccc(F)c(Cl)c3)c2cc1OCCCN1CCOCC1 [Gefitinib] + CC(C)n1c(=O)n(C)c2cnc3cc(F)c(-c4ccc(OCCCN5CCCCC5)nc4)cc3c21 [AZD1390] (first compound max 10 µM, 7x7, partner max 0.3 µM): -0.0384
- Cc1c2c(nn1C)CSCc1cc(n(C)n1)CSc1cc(c3ccccc3c1)OCCCc1c(C(=O)O)n(C)c3c-2c(Cl)ccc13 [AZD5991] + CN(C)CCCOc1ccc(-c2ccc3ncc4c(c3c2)n(C2CCOCC2)c(=O)n4C)cn1 [AZD0156] (first compound max 1 µM, 7x7, partner max 1 µM): 0.0454
- CN(CCO)CC[C@H](CSc1ccccc1)Nc1ccc(S(=O)(=O)NC(=O)c2ccc(N3CCC([C@@H](O)c4ccccc4-c4ccc(Cl)cc4)CC3)cc2)cc1S(=O)(=O)C(F)(F)F [AZD4320] + C1CN(CCC1(C(=O)N[C@@H](CCO)C2=CC=C(C=C2)Cl)N)C3=NC=NC4=C3C=CN4 [Capivasertib] (first compound max 1 µM, 7x7, partner max 3 µM): -0.0274
- Cc1c2c(nn1C)CSCc1cc(n(C)n1)CSc1cc(c3ccccc3c1)OCCCc1c(C(=O)O)n(C)c3c-2c(Cl)ccc13 [AZD5991] + C1CN(CCC1(C(=O)N[C@@H](CCO)C2=CC=C(C=C2)Cl)N)C3=NC=NC4=C3C=CN4 [Capivasertib] (first compound max 1 µM, 7x7, partner max 3 µM): 0.0312
- CC1(C)CCC(CN2CCN(c3ccc(C(=O)NS(=O)(=O)c4ccc(NCC5CCOCC5)c([N+](=O)[O-])c4)c(Oc4cnc5[nH]ccc5c4)c3)CC2)=C(c2ccc(Cl)cc2)C1 [Venetoclax] + COc1cc(Nc2ncc3c(n2)-c2ccc(Cl)cc2C(c2c(F)cccc2OC)=NC3)ccc1C(=O)O [Alisertib] (first compound max 1 µM, 7x7, partner max 10 µM): -0.079
- CC(=O)Nc1cccc(-n2c(=O)n(C3CC3)c(=O)c3c(Nc4ccc(I)cc4F)n(C)c(=O)c(C)c32)c1 [Trametinib] + Cc1nc(-c2cn3c(n2)-c2ccc(-c4cnn(C(C)(C)C(N)=O)c4)cc2OCC3)n(C(C)C)n1 [Taselisib] (first compound max 1 µM, 7x7, partner max 10 µM): 0.109
- CN(CCO)CC[C@H](CSc1ccccc1)Nc1ccc(S(=O)(=O)NC(=O)c2ccc(N3CCC([C@@H](O)c4ccccc4-c4ccc(Cl)cc4)CC3)cc2)cc1S(=O)(=O)C(F)(F)F [AZD4320] + Cc1cc2ncnn2cc1Nc1ncc2c(n1)n(C1CCOCC1)c(=O)n2C [AZD7648] (first compound max 1 µM, 7x7, partner max 10 µM): -0.0118
- Cc1c2c(nn1C)CSCc1cc(n(C)n1)CSc1cc(c3ccccc3c1)OCCCc1c(C(=O)O)n(C)c3c-2c(Cl)ccc13 [AZD5991] + C[C@@H]1COCCN1C2=NC(=NC(=C2)C3(CC3)[S@](=N)(=O)C)C4=C5C=CNC5=NC=C4 [AZD6738] (first compound max 1 µM, 7x7, partner max 10 µM): 0.0046
- CC1(C)CCC(CN2CCN(c3ccc(C(=O)NS(=O)(=O)c4ccc(NCC5CCOCC5)c([N+](=O)[O-])c4)c(Oc4cnc5[nH]ccc5c4)c3)CC2)=C(c2ccc(Cl)cc2)C1 [Venetoclax] + CN(C)CCCOc1ccc(-c2ccc3ncc4c(c3c2)n(C2CCOCC2)c(=O)n4C)cn1 [AZD0156] (first compound max 1 µM, 7x7, partner max 1 µM): -0.0402
